Tested on: Wild type
method: S. aureus survival, RN4220 and DeltatarO strains – OD600, teichoic acid synthesis inhibitors, primary screen (AID 463173)
measurement.setup: S. aureus RN4220 wild type/DeltatarO growth, OD600, 18 h, screened at 18.75 µg/mL (by protocol)
The whole screen tested about 52,000 compounds, of which about 1,700 (3.3%) were called active. Rule as the data show it: active = survival mostly below about 52% (no sharp cut-off); inactive = mostly above about 56%. Many of the other results were omitted from the sample, so actives are more common in it than they were.
Give one outcome, nothing more. List: active, inactive

compound: COc1ccc(CCNc2ncnc3c2cnn3-c2ccc(C)cc2)cc1
system.name: Wild type
group.label: inactive
--
compound: CCOc1ccccc1Nc1ncnc2c1cnn2-c1ccc(C)cc1
system.name: Wild type
group.label: inactive

Lab log entry: Cc1nn(S(=O)(=O)c2ccccc2)c(C)c1S(=O)(=O)N1CCC(C)CC1 — outcome as called in the assay?
inactive

====

Test system: Wild type
method: S. aureus survival, RN4220 and DeltatarO strains – OD600, teichoic acid synthesis inhibitors, primary screen (AID 463173)
measurement.setup: S. aureus RN4220 wild type/DeltatarO growth, OD600, 18 h, hits give low values, screened at 18.75 µg/mL (by protocol)
About 1,700 (3.3%) of roughly 52,000 compounds were called active. The full list was thinned out, with actives kept by preference.
Output criterion met for records whose survival is lower than 40%, criterion not met for records at or above 40%.

hey, is survival for Cc1cc(C)n(-c2nc3ccccc3nc2Nc2cccc(C)c2C)n1 lower than 40% or not?
criterion met

Quick check: survival of Cc1ccc(OCC(=O)Nc2ccc(S(=O)(=O)Nc3ncccn3)cc2)c(C(C)(C)C)c1 under 40%?
criterion not met

For Cc1cc(C)n(-c2nc3ccccc3nc2Nc2cc(Cl)ccc2C)n1 , is the recorded survival below the cut-off of 40%?
criterion not met

====

Test system: Wild type
method: S. aureus survival, RN4220 and DeltatarO strains – OD600, teichoic acid synthesis inhibitors, primary screen (AID 463173)
measurement.setup: S. aureus RN4220 wild type/DeltatarO growth, OD600, 18 h, screened at 18.75 µg/mL (by protocol)
Screen size: about 52,000 compounds; about 1,700 (3.3%) were called active. Rule as the data show it: active = survival mostly below about 52% (no sharp cut-off); inactive = mostly above about 56%. The sample holds actives, similar compounds and a random draw of the others, so the mix is not that of the screen.
Your reply should match one of these outcome classes. active, inactive

compound: Cc1ccc(-c2cc3nc(-c4ccccc4)cc(C(F)(F)F)n3n2)cc1
system.name: Wild type
group.label: inactive

compound: O=C(Nc1ccc2oc(-c3cccnc3)nc2c1)c1ccc(-c2cccc(OC(F)(F)F)c2)o1
system.name: Wild type
group.label: inactive

compound: COc1ccc(Cl)cc1NC(=O)NCCn1c(=O)oc2ccc(C)cc21
system.name: Wild type
group.label: inactive

compound: CC1=C(C(=O)NCc2cccc(Br)c2)C2(CCCCC2)OC1=O
system.name: Wild type
group.label: inactive

compound: Cc1ccc2oc(=O)n(CCCOc3ccc(Cl)cc3)c2c1
system.name: Wild type
group.label: active

compound: CCC(C)NC(=O)CSc1nc(-c2ccc(F)cc2)cc(C(F)(F)F)n1 (configuration not stated)
system.name: Wild type
group.label: inactive

Short answer needed: outcome of this test for CCCNC(=O)CSc1nc(-c2ccccc2)cc(C(F)(F)F)n1 ?
inactive

====

System: Wild type
method: S. aureus survival, RN4220 and DeltatarO strains – OD600, teichoic acid synthesis inhibitors, primary screen (AID 463173)
measurement.setup: S. aureus RN4220 wild type/DeltatarO growth, OD600, 18 h, hits give low values, screened at 18.75 µg/mL (by protocol)
Out of some 52,000 compounds screened, about 1,700 (3.3%) were called active. The sample holds actives, similar compounds and a random draw of the others, so the mix is not that of the screen.
experimental.readout: survival (%)
Give bare numbers, in %.

The cases that follow already have their survival on record.
compound: Cc1ccc(Cn2c(SCC(=O)NCc3ccccc3)nc3ccsc3c2=O)cc1
experimental.readout: survival
observed.result: 76
--
compound: Cc1ccc(Cn2c(SCC(=O)NCc3ccccc3Cl)nc3ccsc3c2=O)cc1
experimental.readout: survival
observed.result: -6
--
compound: COc1cc(C(=O)Nc2nonc2-c2ccc(Cl)cc2)cc(OC)c1OC
experimental.readout: survival
observed.result: 94
--
compound: Cc1cc(C)c(NC(=O)Cn2nnc(-c3nc(-c4ccncc4)no3)c2N)c(C)c1
experimental.readout: survival
observed.result: 71

For every item below, please supply its survival.
1. Cc1ccc(-n2c(SCC(=O)O)nc3sc4c(c3c2=O)CCCC4)cc1
2. Cc1ccc(CNC(=O)CSc2nc3ccsc3c(=O)n2-c2ccc(Br)cc2)cc1

1: 73; 2: 14

For each listed entry, give its survival.
1. O=C(/C=C/c1cn(CC(O)CN2CCCCCC2)c2ccccc12)c1ccc(Br)cc1 (stereo not drawn)
2. CCCSc1nc2sc3c(c2c(=O)n1-c1ccccc1)CCC(C)C3 (stereo not drawn)

14
1

====

System: Wild type
method: S. aureus survival, RN4220 and DeltatarO strains – OD600, teichoic acid synthesis inhibitors, primary screen (AID 463173)
measurement.setup: S. aureus RN4220 wild type/DeltatarO growth, OD600, 18 h, hits give low values, screened at 18.75 µg/mL (by protocol)
Screen size: about 52,000 compounds; about 1,700 (3.3%) were called active. For the sample, actives were picked, then their nearest neighbours and some compounds at random.
Quick rule for you: survival under 80% gets satisfied, anything else gets not satisfied.

compound: Cc1ccc2nc(SCc3nc(-c4ccc(Cl)cc4)no3)[nH]c2c1
system.name: Wild type
group.label: satisfied
--
compound: COc1cccc(C2CC(=O)Nc3c2ccc(C)c3C)c1OC (stereo not given)
system.name: Wild type
group.label: not satisfied
--
compound: O=c1[nH]c2cc3c(cc2cc1CN(CCN1CCOCC1)C(=S)Nc1ccccc1)OCCO3
system.name: Wild type
group.label: not satisfied

Lab note: survival threshold 80%. Does this compound come in strictly under it? O=c1cc(O)n(-c2ccccc2)c(=S)[nH]1
not satisfied

Is 80% strictly greater than the compound's reported survival? compound: Cc1ccc(NC2=C(CC(=O)O)C(c3ccc(F)cc3)N(c3ccc(C)cc3)C2=O)cc1 (stereo not given)
satisfied

I wonder whether Cc1cc(C)n(C(=O)CNc2ccccc2Cl)n1 has survival below 80%. Can you tell?
not satisfied

Report whether reported survival is lower than 80% (strictly) for CCOc1ccc(CNC(=O)C2CCN(S(=O)(=O)N3CCC(C)CC3)CC2)cc1OC
not satisfied

Take the compound CCc1cc(=O)[nH]c(SCc2nc(-c3cccc(Cl)c3)no2)n1 and say whether its survival is less than 80%.
satisfied

Please indicate whether the reported survival of COc1cccc(-c2cc(C(=O)Nc3cc(OC)c(OC)c(OC)c3)on2)c1 is strictly below 80%.
satisfied

I'd appreciate it if you could check whether CCOC(=O)Cn1cnc2c(cnn2-c2ccc(C)c(C)c2)c1=O has survival smaller than 80%.
satisfied

Determine whether this compound shows survival lower than 80% (ties excluded): CCc1cc(=O)[nH]c(SCc2nc(-c3ccc(C(F)(F)F)cc3)no2)n1
satisfied

Dear colleague, could you confirm whether survival of CCC1=Nc2cc(C(=O)N3CCC(C)CC3)ccc2Sc2ccc(C)cc21 falls below 80%? Thanks.
satisfied

====

System: Wild type
method: S. aureus survival, RN4220 and DeltatarO strains – OD600, teichoic acid synthesis inhibitors, primary screen (AID 463173)
measurement.setup: S. aureus RN4220 wild type/DeltatarO growth, OD600, 18 h, hits give low values, screened at 18.75 µg/mL (by protocol)
The campaign covered roughly 52,000 compounds. About 1,700 (3.3%) were called active. The full list was thinned out, with actives kept by preference.
Param label: returns true (1) when survival < 90%, returns false (0) otherwise, including exact equality.

Solved cases below.
compound: COCCNC(=O)c1cnn(-c2cccc(C)c2)c1-n1cccc1
group.label: false (0)

compound: O=C(COc1ccccc1)Nc1ccc2nc(SCCOc3ccccc3)sc2c1
group.label: false (0)

In plain terms, does COc1ccc(C(=O)/C=C/c2cn(CC(O)CN3CCc4ccccc43)c3ccccc23)cc1OC (configuration not stated) come in under 90% for survival?
true (1)

Confirm or reject: survival of O=C(NCCc1csc2nc(-c3ccc(F)cc3)nn12)c1ccco1 lies strictly below 90%
false (0)

Identify whether the compound O=C(O)CCc1ccc(-c2ccccc2)n1Cc1ccco1 records survival below 90%.
false (0)

Check if survival falls below 90% for CCOc1ccccc1CNC(=O)c1ccc(N2Cc3ccccc3Oc3ncccc32)s1 .
true (1)

Find out if reported survival for Cc1oc2c(C)c3oc(=O)c(CC(=O)N4CCCCC4)c(C)c3cc2c1C is less than 90%
true (1)

====

Test system: Wild type
method: S. aureus survival, RN4220 and DeltatarO strains – OD600, teichoic acid synthesis inhibitors, primary screen (AID 463173)
measurement.setup: S. aureus RN4220 wild type/DeltatarO growth, OD600, 18 h, screened at 18.75 µg/mL (by protocol)
Screen size: about 52,000 compounds; about 1,700 (3.3%) were called active. Cut-off read from the data, not from the text of the source: active = survival mostly below about 52% (no sharp cut-off); inactive = mostly above about 56%. Only a selection was taken, and actives are over-represented in it overall.
Assign a class; possible classes are active, inactive

Please state the recorded outcome for this compound: CCCOc1cccc(C(=O)Nc2ccc(-c3nc4ccccc4s3)c(Cl)c2)c1
inactive

Short answer needed: outcome of this test for COc1ccc(-c2cc(C(=O)Oc3ccc(Br)cc3)c3ccccc3n2)cc1 ?
inactive

Answer briefly: the call reported for COc1ccc(-c2cc(C(=O)Oc3ccc(Cl)cc3)c3ccccc3n2)cc1 in this assay.
inactive

Hi team, can someone confirm the assay call for Cc1c(C(=O)N2CCCC2)oc2c1-c1nn(CC(=O)NCc3cccc(F)c3)cc1CC2 ?
inactive

Given Cc1nn2c(=O)cc(COC(=O)c3ccccc3NC(=O)C(C)C)nc2s1 , state the outcome it received in this test.
inactive

Every entry's value here was drawn from PubChem BioAssay AID463173.
